Attribution: the supplement of paper PMC3334620

target entity: Gcr1 (UniProt P07261)
Sequence: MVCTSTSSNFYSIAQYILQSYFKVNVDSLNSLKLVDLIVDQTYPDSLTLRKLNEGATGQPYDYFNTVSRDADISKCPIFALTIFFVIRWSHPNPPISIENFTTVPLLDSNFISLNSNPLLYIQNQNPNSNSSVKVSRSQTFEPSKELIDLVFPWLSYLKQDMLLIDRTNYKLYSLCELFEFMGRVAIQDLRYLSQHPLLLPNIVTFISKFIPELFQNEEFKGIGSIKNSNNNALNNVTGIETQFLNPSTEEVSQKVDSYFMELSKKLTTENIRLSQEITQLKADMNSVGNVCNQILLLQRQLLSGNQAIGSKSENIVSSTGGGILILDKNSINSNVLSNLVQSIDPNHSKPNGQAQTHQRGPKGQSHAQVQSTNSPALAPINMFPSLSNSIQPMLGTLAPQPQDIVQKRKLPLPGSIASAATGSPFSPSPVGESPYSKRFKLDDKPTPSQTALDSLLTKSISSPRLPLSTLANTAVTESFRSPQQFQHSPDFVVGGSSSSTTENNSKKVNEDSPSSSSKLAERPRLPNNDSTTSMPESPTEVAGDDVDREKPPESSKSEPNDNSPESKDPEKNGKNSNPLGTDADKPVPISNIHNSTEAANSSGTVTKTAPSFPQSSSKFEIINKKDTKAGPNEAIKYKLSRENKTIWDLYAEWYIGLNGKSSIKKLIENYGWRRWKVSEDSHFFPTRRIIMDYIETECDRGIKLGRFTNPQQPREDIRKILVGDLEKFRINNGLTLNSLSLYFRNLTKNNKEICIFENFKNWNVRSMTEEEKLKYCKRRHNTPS
method summary: PBM E-score (8-mer binding enrichment) (E-score (-0.5 to 0.5)); higher = stronger / more preferred TF binding
run parameters: protein concentration: 100 nM; construct: GST-full length
The full ranking holds about 33,000 sequences; the median of “E-score (-0.5 to 0.5)” is about -0.011, and the highest 2% start at about 0.28. The full list was thinned out, with the highest values kept by preference.
# if value of PBM E-score reaches 0.3, tag t; if it stays below, tag f

# count of solved cases: 8
Q: Item GTTTGGAA with PBM E-score of 0.3 or above?
Ans: f

Q: Next entry: CCGGCACC
Ans: f

Q: Next entry: CGACCGAC
Ans: f

Q: Next entry: AGCAACCT
Ans: t

Q: Next entry: CGGGTCTA
Ans: f

Q: Next entry: GGAACCAC
Ans: f

Q: Next entry: CAGGCAGG
Ans: f

Q: Next entry: GCGCCCAA
Ans: f

Next:
Q: Item AGCAACCC with PBM E-score of 0.3 or above?
Ans: f

Q: Next entry: ACACGCAA
Ans: f

Q: Next entry: AGACGCTC
Ans: f

* * *

target entity: Gcr1 (UniProt P07261)
Sequence: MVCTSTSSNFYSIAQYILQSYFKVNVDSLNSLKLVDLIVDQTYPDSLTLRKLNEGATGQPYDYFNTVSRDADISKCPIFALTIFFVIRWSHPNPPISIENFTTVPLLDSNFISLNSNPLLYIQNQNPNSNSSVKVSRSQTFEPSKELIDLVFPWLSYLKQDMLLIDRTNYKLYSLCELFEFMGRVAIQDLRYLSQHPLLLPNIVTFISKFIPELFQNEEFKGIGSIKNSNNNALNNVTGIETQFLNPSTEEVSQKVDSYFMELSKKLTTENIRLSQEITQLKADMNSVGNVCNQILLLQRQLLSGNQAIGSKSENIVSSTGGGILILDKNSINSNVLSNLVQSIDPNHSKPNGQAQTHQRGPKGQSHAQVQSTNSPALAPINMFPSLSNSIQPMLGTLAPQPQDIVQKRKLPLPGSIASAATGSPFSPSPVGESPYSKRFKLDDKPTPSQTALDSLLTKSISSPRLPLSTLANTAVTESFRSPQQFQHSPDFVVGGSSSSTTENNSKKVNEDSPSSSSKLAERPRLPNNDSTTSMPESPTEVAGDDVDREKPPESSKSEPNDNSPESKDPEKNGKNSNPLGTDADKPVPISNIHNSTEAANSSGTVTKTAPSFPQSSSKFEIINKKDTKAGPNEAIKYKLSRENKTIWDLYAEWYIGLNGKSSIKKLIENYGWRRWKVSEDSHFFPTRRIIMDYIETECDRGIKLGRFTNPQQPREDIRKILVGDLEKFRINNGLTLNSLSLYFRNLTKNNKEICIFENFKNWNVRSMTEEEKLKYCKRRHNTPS
method summary: PBM E-score (8-mer binding enrichment) (E-score (-0.5 to 0.5)); higher = stronger / more preferred TF binding
run parameters: protein concentration: 100 nM; construct: GST-full length
In all, about 33,000 sequences were measured (“E-score (-0.5 to 0.5)”: median about -0.011, highest 2% from about 0.28 on). Shown is part of a subset that was picked to be rich in the highest values.
readout: PBM E-score
Answers are plain numbers.

Past entries and their recorded results:
Q: Which PBM E-score value is on record for ACAAGATA ?
Ans: 0.102

Q: Next entry: ACAAGATC
Ans: 0.0465

Q: Next entry: GATGCGCA
Ans: 0.134

Go through the list and state PBM E-score for each entry.
1. AGAAGAAC
2. ATAAGAAA
3. GTCCGTAA
4. AGAAGAAT

Ans:
[0.13, 0.171, 0.215, 0.119]

Go through the list and state PBM E-score for each entry.
1. AGGGAGCC
2. CAACTTCA
3. CGGGAGCC

Ans:
1: 0.296; 2: -0.0643; 3: 0.337

Go through the list and state PBM E-score for each entry.
1. CCACTTCC
2. TCACTAAA
3. GCCGGAAC
4. CCCAACGG
5. AGCGGGCA
6. GCACTTCC

Ans:
1: 0.305; 2: 0.134; 3: 0.247; 4: -0.0188; 5: -0.156; 6: 0.168
